tested on: 521955-158-R2-J5-PDC complex spheroid growth; test: Anticancer human tumor 521955-158-R2-J5-PDC patient-derived pancreatic carcinoma cell line growth inhibition [AhR]; conditions: second compound 10 µM; first compound 0.1 µM; stronger effect = lower value
Note to self: viability, T/C under 90% means fulfilled, ties and anything higher get not fulfilled.

COMPOUND	QUALITATIVE_LABEL
Nc1ccccc1NC(=O)c1ccc(CNC(=O)OCc2cccnc2)cc1 + Cc1cncc(-c2nc(NCCc3c[nH]c4ccccc34)c3ncn(C(C)C)c3n2)c1	not fulfilled
COc1cc(Nc2ncc3c(n2)-c2ccc(Cl)cc2C(c2c(F)cccc2OC)=NC3)ccc1C(=O)O + CC(CO)NC(=O)c1cc(-c2ccc(Cl)cc2)nn(-c2cnn(C)c2)c1=O	fulfilled
CC1(C)CCC(CN2CCN(c3ccc(C(=O)NS(=O)(=O)c4ccc(NCC5CCOCC5)c([N+](=O)[O-])c4)c(Oc4cnc5[nH]ccc5c4)c3)CC2)=C(c2ccc(Cl)cc2)C1 + CC(CO)NC(=O)c1cc(-c2ccc(Cl)cc2)nn(-c2cnn(C)c2)c1=O	not fulfilled
CC[C@@]1(O)C(=O)OCc2c1cc1n(c2=O)Cc2cc3c(CN(C)C)c(O)ccc3nc2-1 + Cc1ccccc1N=Nc1ccc(NC(=O)c2ccnn2C)c(C)c1	fulfilled

---

A collection of molecules and their measured viability, T/C
test system: 521955-158-R2-J5-PDC complex spheroid growth; assay: Anticancer human tumor 521955-158-R2-J5-PDC cell line growth inhibition [AhR]; conditions: second compound 10 µM; first compound 10 µM; stronger effect = lower value;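 further: spheroids mix tumor cells with HUVEC endothelium and human MSC stroma; luminescence taken as viability surrogate after a week of drug exposure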

MOLECULE	TARGET_UNDER_TEST	viability, T/C
CC1COCCN1c1cc(C2(S(C)(=N)=O)CC2)nc(-c2ccnc3[nH]ccc23)n1 (stereo not drawn) + CC(CO)NC(=O)c1cc(-c2ccc(Cl)cc2)nn(-c2cnn(C)c2)c1=O	521955-158-R2-J5-PDC complex spheroid growth	11.8%
O=C(c1cc(Cc2n[nH]c(=O)c3ccccc23)ccc1F)N1CCN(C(=O)C2CC2)CC1 + CC(CO)NC(=O)c1cc(-c2ccc(Cl)cc2)nn(-c2cnn(C)c2)c1=O	521955-158-R2-J5-PDC complex spheroid growth	50.5%
NS(=O)(=O)OCC1CC(n2ccc3c(NC4CCc5ccccc54)ncnc32)CC1O (stereo not drawn) + Cc1ccccc1N=Nc1ccc(NC(=O)c2ccnn2C)c(C)c1	521955-158-R2-J5-PDC complex spheroid growth	25.6%
CC(C)c1c(-c2ccccc2)nc2c(C#N)c[nH]n2c1=O + Cc1ccccc1N=Nc1ccc(NC(=O)c2ccnn2C)c(C)c1	521955-158-R2-J5-PDC complex spheroid growth	103%
NS(=O)(=O)OCC1CC(n2ccc3c(NC4CCc5ccccc54)ncnc32)CC1O (stereo not drawn) + CC(CO)NC(=O)c1cc(-c2ccc(Cl)cc2)nn(-c2cnn(C)c2)c1=O	521955-158-R2-J5-PDC complex spheroid growth	15.2%
COc1cc(Nc2ncc3c(n2)-c2ccc(Cl)cc2C(c2c(F)cccc2OC)=NC3)ccc1C(=O)O + CC(CO)NC(=O)c1cc(-c2ccc(Cl)cc2)nn(-c2cnn(C)c2)c1=O	521955-158-R2-J5-PDC complex spheroid growth	35%
COc1ccc([C@@H](O)c2cc(-c3ncnc4cc(N5CCOCC5)ccc34)c(F)cc2Cl)nn1 + CC(CO)NC(=O)c1cc(-c2ccc(Cl)cc2)nn(-c2cnn(C)c2)c1=O	521955-158-R2-J5-PDC complex spheroid growth	35.5%
Nc1ccccc1NC(=O)c1ccc(CNC(=O)OCc2cccnc2)cc1 + CC(CO)NC(=O)c1cc(-c2ccc(Cl)cc2)nn(-c2cnn(C)c2)c1=O	521955-158-R2-J5-PDC complex spheroid growth	14.1%
Nc1ccn(C2OC(CO)C(O)C2(F)F)c(=O)n1 (stereo not drawn) + Cc1cncc(-c2nc(NCCc3c[nH]c4ccccc34)c3ncn(C(C)C)c3n2)c1	521955-158-R2-J5-PDC complex spheroid growth	22.2%
CC1COCCN1c1cc(C2(S(C)(=N)=O)CC2)nc(-c2ccnc3[nH]ccc23)n1 (stereo not drawn) + Cc1cncc(-c2nc(NCCc3c[nH]c4ccccc34)c3ncn(C(C)C)c3n2)c1	521955-158-R2-J5-PDC complex spheroid growth	14.3%
O=C(C=Cc1cccc(S(=O)(=O)Nc2ccccc2)c1)NO + Cc1cncc(-c2nc(NCCc3c[nH]c4ccccc34)c3ncn(C(C)C)c3n2)c1	521955-158-R2-J5-PDC complex spheroid growth	5.33%
Nc1ccccc1NC(=O)c1ccc(CNC(=O)OCc2cccnc2)cc1 + Cc1ccccc1N=Nc1ccc(NC(=O)c2ccnn2C)c(C)c1	521955-158-R2-J5-PDC complex spheroid growth	38.7%
O=C(C=Cc1cccc(S(=O)(=O)Nc2ccccc2)c1)NO + Cc1ccccc1N=Nc1ccc(NC(=O)c2ccnn2C)c(C)c1	521955-158-R2-J5-PDC complex spheroid growth	24.9%
